- targetEntity: rNav1.2 sodium channels (HEK-293 cells) (Rattus norvegicus, UniProt P04775)
- Sequence (P04775 whole entry): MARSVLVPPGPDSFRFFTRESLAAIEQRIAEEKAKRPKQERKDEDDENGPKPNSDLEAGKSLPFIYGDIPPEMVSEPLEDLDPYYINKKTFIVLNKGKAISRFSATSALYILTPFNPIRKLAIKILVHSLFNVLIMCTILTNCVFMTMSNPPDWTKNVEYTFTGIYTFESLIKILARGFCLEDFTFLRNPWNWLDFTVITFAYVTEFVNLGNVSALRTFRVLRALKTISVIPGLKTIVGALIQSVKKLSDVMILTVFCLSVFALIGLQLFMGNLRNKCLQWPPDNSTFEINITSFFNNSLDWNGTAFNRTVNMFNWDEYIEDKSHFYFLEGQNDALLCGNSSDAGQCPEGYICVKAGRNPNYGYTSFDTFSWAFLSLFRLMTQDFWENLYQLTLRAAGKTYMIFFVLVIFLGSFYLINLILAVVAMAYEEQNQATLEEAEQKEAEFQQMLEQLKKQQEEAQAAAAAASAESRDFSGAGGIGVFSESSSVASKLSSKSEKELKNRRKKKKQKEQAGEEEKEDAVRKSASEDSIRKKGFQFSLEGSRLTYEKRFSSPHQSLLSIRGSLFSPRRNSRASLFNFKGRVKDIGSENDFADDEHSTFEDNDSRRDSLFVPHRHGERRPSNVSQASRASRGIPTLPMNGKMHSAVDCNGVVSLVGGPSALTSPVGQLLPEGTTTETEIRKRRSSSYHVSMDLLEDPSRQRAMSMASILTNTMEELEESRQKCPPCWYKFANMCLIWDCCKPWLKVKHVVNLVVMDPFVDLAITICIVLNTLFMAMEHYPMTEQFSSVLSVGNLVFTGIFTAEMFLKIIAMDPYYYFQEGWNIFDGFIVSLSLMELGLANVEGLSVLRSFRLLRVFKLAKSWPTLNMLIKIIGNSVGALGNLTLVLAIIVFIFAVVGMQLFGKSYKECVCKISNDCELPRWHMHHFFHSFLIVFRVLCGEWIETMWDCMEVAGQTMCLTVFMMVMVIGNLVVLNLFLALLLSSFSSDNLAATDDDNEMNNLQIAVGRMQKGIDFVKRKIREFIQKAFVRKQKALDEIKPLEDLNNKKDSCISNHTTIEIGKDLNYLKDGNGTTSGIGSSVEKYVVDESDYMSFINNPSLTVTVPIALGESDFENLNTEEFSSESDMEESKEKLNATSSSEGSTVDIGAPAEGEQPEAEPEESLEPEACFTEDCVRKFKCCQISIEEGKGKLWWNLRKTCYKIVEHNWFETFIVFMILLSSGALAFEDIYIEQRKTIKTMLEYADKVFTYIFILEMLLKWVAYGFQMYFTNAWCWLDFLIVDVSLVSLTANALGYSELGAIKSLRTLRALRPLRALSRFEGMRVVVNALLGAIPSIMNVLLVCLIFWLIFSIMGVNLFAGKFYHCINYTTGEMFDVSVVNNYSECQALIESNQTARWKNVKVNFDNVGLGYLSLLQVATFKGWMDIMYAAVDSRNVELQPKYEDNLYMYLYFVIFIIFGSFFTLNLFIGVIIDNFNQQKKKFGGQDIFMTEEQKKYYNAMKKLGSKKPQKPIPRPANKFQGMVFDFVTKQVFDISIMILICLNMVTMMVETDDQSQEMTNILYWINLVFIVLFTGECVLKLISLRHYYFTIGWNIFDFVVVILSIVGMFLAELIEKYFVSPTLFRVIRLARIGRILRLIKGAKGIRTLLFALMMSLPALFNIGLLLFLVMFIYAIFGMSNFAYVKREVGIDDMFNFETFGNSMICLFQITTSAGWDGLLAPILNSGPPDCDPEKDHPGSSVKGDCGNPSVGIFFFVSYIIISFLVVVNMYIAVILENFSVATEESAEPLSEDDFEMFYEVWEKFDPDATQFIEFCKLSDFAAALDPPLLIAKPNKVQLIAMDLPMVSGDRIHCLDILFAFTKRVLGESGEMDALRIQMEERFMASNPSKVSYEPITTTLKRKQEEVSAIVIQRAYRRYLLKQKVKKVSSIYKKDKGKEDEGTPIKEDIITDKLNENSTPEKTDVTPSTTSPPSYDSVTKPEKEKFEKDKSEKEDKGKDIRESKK
- assayText: steady-state inactivation protocol (availability curves), QPatch automated patch-clamp
- Format: cell-based
- appliedConditions: HEK293; 30 µM; read-out: Inh (inhibited fraction) at holding potential −150 mV
inhibition at 30 µM below 20% gives false (0); inhibition at 30 µM at or above it gives true (1).

{"columns": ["smilesCode", "assignedLabel"],
 "data": [
  ["CNCCCN1c2ccccc2CCc2ccccc21", "true (1)"],
  ["CCc1nn(CCCN2CCN(c3cccc(Cl)c3)CC2)c(=O)n1CCOc1ccccc1", "false (0)"],
  ["CN(C)CCCN1c2ccccc2Sc2ccc(Cl)cc21", "true (1)"],
  ["Cc1nc2sccn2c(=O)c1CCN1CCC(=C(c2ccc(F)cc2)c2ccc(F)cc2)CC1", "false (0)"],
  ["Fc1ccc([C@@H]2CCNC[C@H]2COc2ccc3c(c2)OCO3)cc1", "true (1)"]
]}

Continue with the next compound.
Task: Does the reported inhibition at 30 µM for Nc1nc2ccc(OC(F)(F)F)cc2s1 fall at or above the 20% mark?
Output: false (0)

* * *

- targetEntity: rNav1.2 sodium channels (HEK-293 cells) (Rattus norvegicus, UniProt P04775)
- assayText: steady-state inactivation protocol (availability curves), QPatch automated patch-clamp
- Type: cell-based
- appliedConditions: geometric mean; from apparent affinity, 1 µM; read-out: Ki−Kapp (inactivated state affinity)
propertyMeasured: pKi
Give bare numbers, as −log10 of the molar value.

pKi reported for this compound Cc1ccc(-c2nc(C)c(CN3CCN(C(c4ccccc4)c4ccccc4)CC3)[nH]2)cc1 : 6.30

* * *

- targetEntity: rNav1.2 sodium channels (HEK-293 cells) (Rattus norvegicus, UniProt P04775)
- assayText: 5 Hz train protocol, QPatch automated patch-clamp
- Assay type: cell-based
- appliedConditions: 300 μM; Rev = A5/A1 after washout
Rev (reversibility) below 0.8 gives Condition not met; Rev (reversibility) at or above it gives Condition met.

Reference set, count: 2
{"columns": ["compound", "targetEntity", "assignedLabel"],
 "data": [
  ["NC(=O)N1c2ccccc2C=Cc2ccccc21 [CBZ, Carbamazepine]", "rNav1.2 sodium channels (HEK-293 cells) (Rattus norvegicus, UniProt P04775)", "Condition met"],
  ["O=C1NC(=O)C(c2ccccc2)(c2ccccc2)N1", "rNav1.2 sodium channels (HEK-293 cells) (Rattus norvegicus, UniProt P04775)", "Condition not met"]
]}

Task: Does the reported Rev (reversibility) for Nc1nnc(-c2cccc(Cl)c2Cl)c(N)n1 fall at or above the 0.8 mark?
Output: Condition met

Task: Does the reported Rev (reversibility) for CCN(CC)CC(=O)Nc1c(C)cccc1C fall at or above the 0.8 mark?
Output: Condition met

Task: Does the reported Rev (reversibility) for O=C(NCC1CCCCN1)c1cc(OCC(F)(F)F)ccc1OCC(F)(F)F (stereo not drawn) [FLC, Flecainide] fall at or above the 0.8 mark?
Output: Condition not met

* * *

- targetEntity: rNav1.2 sodium channels (HEK-293 cells) (Rattus norvegicus)
- assayText: steady-state inactivation protocol (availability curves), QPatch automated patch-clamp
- Format: cell-based
- appliedConditions: Ki-Kapp arith, arithmetic mean; 100 µM
propertyMeasured: Ki (µM)
Answers are plain numbers, in µM.

{"columns": ["compound", "targetEntity", "Ki, µM"],
 "data": [
  ["COc1ccc(C(CN(C)C)C2(O)CCCCC2)cc1 (centres unmarked)", "rNav1.2 sodium channels (HEK-293 cells) (Rattus norvegicus)", 72.8]
]}

Ki reported for this compound CNCCC(Oc1ccccc1OC)c1ccccc1 (centres unmarked) : 7.63

* * *

- targetEntity: rNav1.2 sodium channels (HEK-293 cells) (Rattus norvegicus)
- assayText: steady-state inactivation protocol (availability curves), QPatch automated patch-clamp
- Assay type: cell-based
- appliedConditions: geometric mean; from Inh at −150 mV, 300 µM; read-out: Kr (resting state affinity)
pKd: −log10 of the molar value.
pKd below 3 gives FALSE; pKd at or above it gives TRUE.

Reference set, count: 2
{"columns": ["compound", "assignedLabel"],
 "data": [
  ["O=C1NC(=O)C(c2ccccc2)(c2ccccc2)N1 [DPH, 5,5-diphenyl-hydantoin]", "FALSE"],
  ["Nc1nnc(-c2cccc(Cl)c2Cl)c(N)n1 [LTG, Lamotrigine]", "FALSE"]
]}

Continue with the next compound.
Task: Does the reported pKd for Cc1cccc(C)c1OCC(C)N (stereo not shown) [MEX, Mexiletine] fall at or above the 3 mark?
Output: TRUE

* * *

- targetEntity: rNav1.2 sodium channels (HEK-293 cells) (Rattus norvegicus)
- assayText: 5 Hz train protocol, QPatch automated patch-clamp
- Format: cell-based
- appliedConditions: 30 μM; 5 Hz train
propertyMeasured: UD (use-dependence of the inhibition)

Some compounds with known UD (use-dependence of the inhibition) results, for comparison:
{"columns": ["compound", "UD (use-dependence of the inhibition)"],
 "data": [
  ["CN(C)CCC=C1c2ccccc2CCc2ccccc21 [AMI, Amitriptyline]", 1.66],
  ["CN(C)CCCN1c2ccccc2Sc2ccc(Cl)cc21 [CPM, Chlorpromazine]", 1.30],
  ["CNCCCN1c2ccccc2CCc2ccccc21 [DMI, Desipramine]", 1.32]
]}

Record UD (use-dependence of the inhibition) per entry; entries follow.
1. CN(C)CC/C=C1/c2ccccc2Sc2ccc(Cl)cc21 [CHX, Chlorprothixene]
2. Cc1nc2sccn2c(=O)c1CCN1CCC(=C(c2ccc(F)cc2)c2ccc(F)cc2)CC1 [RIT, Ritanserin]
3. CCc1nn(CCCN2CCN(c3cccc(Cl)c3)CC2)c(=O)n1CCOc1ccccc1 [NFZ, Nefazodone]
4. Fc1ccc([C@@H]2CCNC[C@H]2COc2ccc3c(c2)OCO3)cc1 [PRX, Paroxetine]
5. Cc1ccc(-c2nc(C)c(CN3CCN(C(c4ccccc4)c4ccccc4)CC3)[nH]2)cc1 [LIF, Lifarizine]
6. Nc1nc2ccc(OC(F)(F)F)cc2s1 [RIL, Riluzole]

Output:
1. 1.25
2. 1.09
3. 1.22
4. 1.46
5. 1.02
6. 0.95

* * *

Give log10(τon) for every item shown.
- targetEntity: rNav1.2 sodium channels (HEK-293 cells) (Rattus norvegicus)
- assayText: 5 Hz train protocol, QPatch automated patch-clamp
- Assay type: cell-based
- appliedConditions: 30 μM
Scale: log10; quantity: τon; unit before log: s

{"columns": ["compound", "log10(τon)"],
 "data": [
  ["CNCCCN1c2ccccc2CCc2ccccc21 [DMI, Desipramine]", 1.51]
]}

Record log10(τon) per entry; entries follow.
1. Cc1ccc(-c2nc(C)c(CN3CCN(C(c4ccccc4)c4ccccc4)CC3)[nH]2)cc1 [LIF, Lifarizine]
2. CN(C)CC/C=C1/c2ccccc2Sc2ccc(Cl)cc21 [CHX, Chlorprothixene]
3. CN(C)CCC=C1c2ccccc2CCc2ccccc21 [AMI, Amitriptyline]
4. Nc1nc2ccc(OC(F)(F)F)cc2s1 [RIL, Riluzole]

Output:
1. 1.98
2. 0.86
3. 1.02
4. 0.59

* * *

Give log10 Ki for every item shown.
- targetEntity: rNav1.2 sodium channels (HEK-293 cells) (Rattus norvegicus)
- assayText: steady-state inactivation protocol (availability curves), QPatch automated patch-clamp
- Format: cell-based
- appliedConditions: geometric mean; from shift of availability curve, 300 µM; read-out: Ki−ΔV1/2 (inactivated state affinity)
Scale: log10; quantity: Ki; unit before log: µM

{"columns": ["compound", "recordedMeasurement"],
 "data": [
  ["CCN(CC)CC(=O)Nc1c(C)cccc1C", 1.95],
  ["Nc1nnc(-c2cccc(Cl)c2Cl)c(N)n1", 1.50],
  ["COc1ccccc1OCC(O)CN1CCN(CC(=O)Nc2c(C)cccc2C)CC1 (stereo not drawn)", 1.82],
  ["NC(=O)N1c2ccccc2C=Cc2ccccc21 [CBZ, Carbamazepine]", 1.60],
  ["O=C1NC(=O)C(c2ccccc2)(c2ccccc2)N1", 2.18]
]}

As a next step, examine the compound that follows.
For O=C(NCC1CCCCN1)c1cc(OCC(F)(F)F)ccc1OCC(F)(F)F (stereo not drawn) [FLC, Flecainide] on rNav1.2 sodium channels (HEK-293 cells) (Rattus norvegicus), measured log10 Ki was 0.90

* * *

Give τon for every item shown.
- targetEntity: rNav1.2 sodium channels (HEK-293 cells) (Rattus norvegicus, UniProt P04775)
- assayText: 5 Hz train protocol, QPatch automated patch-clamp
- Type: cell-based
- appliedConditions: 300 μM; 3 s assigned where too short to be resolved

Some compounds with known τon results, for comparison:
{"columns": ["compound", "τon"],
 "data": [
  ["O=C(NCC1CCCCN1)c1cc(OCC(F)(F)F)ccc1OCC(F)(F)F (stereo not drawn) [FLC, Flecainide]", "20.04 s"],
  ["CCN(CC)CC(=O)Nc1c(C)cccc1C", "3 s"]
]}

Record τon per entry; entries follow.
1. Cc1cccc(C)c1OCC(C)N (stereo not drawn)
2. Nc1nnc(-c2cccc(Cl)c2Cl)c(N)n1
3. O=C1NC(=O)C(c2ccccc2)(c2ccccc2)N1
4. NC(=O)N1c2ccccc2C=Cc2ccccc21 [CBZ, Carbamazepine]

Output:
1: 8.6 s; 2: 8.19 s; 3: 5.20 s; 4: 3 s
